# Assay Name: Plasma pharmacokinetics after IV or PO administration
# Assay type: in vivo, SD Rat
# Run Parameters: Sprague-Dawley, rat, serum, po, 40 mg/kg, SD Rat, PO 40 mg/kg; read-out: AUC0-∞, Mean
Value Kind: AUC(0-inf) (ng·h/mL)
Give bare numbers, in ng·h/mL.

Reported AUC(0-inf) for Cc1ccc(=O)n(-c2ccccc2)c1 [Pirfenidone, 5 methyl-1-phenyl-2-[H] pyridone] was 12100

----------
# Assay Name: Plasma pharmacokinetics after IV or PO administration
# Assay type: in vivo, SD Rat
# Run Parameters: Sprague-Dawley, rat, serum, po, 40 mg/kg, SD Rat, PO 40 mg/kg; read-out: Cmax, Mean
Value Kind: Cmax (ng/mL)
Answers are plain numbers, in ng/mL.

Reported Cmax of Cc1ccc(=O)n(-c2ccccc2)c1 [Pirfenidone, 5 methyl-1-phenyl-2-[H] pyridone] : 9000

----------
# Assay Name: Plasma pharmacokinetics after IV or PO administration
# Format: in vivo
# Run Parameters: Sprague-Dawley, plasma; SD Rat, PO 40 mg/kg, individual rats 7-9
Value Kind: Tmax (min)
Answers are plain numbers, in min.

The compound identified as Cc1ccc(=O)n(-c2ccccc2)c1 [Pirfenidone, 5 methyl-1-phenyl-2-[H] pyridone] registered its Tmax at 15

----------
# Assay Name: Plasma pharmacokinetics after IV or PO administration
# Format: in vivo, SD Rat
# Run Parameters: Sprague-Dawley, rat, serum, iv, 40 mg/kg, SD Rat, IV 40 mg/kg, individual rats 1-3; read-out: AUC0-∞
Value Kind: AUC(0-inf) (ng·h/mL)
One number for each entry, in ng·h/mL.

AUC(0-inf) recorded for this compound, Cc1ccc(=O)n(-c2ccccc2)c1 [Pirfenidone, 5 methyl-1-phenyl-2-[H] pyridone] , is 21400

----------
# Assay Name: Plasma pharmacokinetics after IV or PO administration
# Type: in vivo, SD Rat
# Run Parameters: Sprague-Dawley, rat, plasma, iv, 40 mg/kg, SD Rat, IV 40 mg/kg, 4 h, individual rats 1-3; read-out: Plasma concentrations of Pirfenidone
Value Kind: concentration at 4 h
Phrase the answer as number then unit, nothing more needed.

Record Cc1ccc(=O)n(-c2ccccc2)c1 [Pirfenidone, 5 methyl-1-phenyl-2-[H] pyridone] , field concentration at 4 h: 4.27 ng/mL

----------
# Assay Name: Plasma pharmacokinetics after IV or PO administration
# Type: in vivo, SD Rat
# Run Parameters: Sprague-Dawley, rat, serum, iv, 40 mg/kg, SD Rat, IV 40 mg/kg, individual rats 1-3; read-out: AUC0-t
# Experimental: Pirfenidone and Pegyonde-6 were administered at equimolar concentrations to rats IV or per os (PO) and serum concentrations measured at different time points to measure pharmacokinetic parameters. The drugs were solubilized in 5% Alcohol+20% PEG 300 in saline.
Value Kind: AUC0-t (ng·h/mL)
One number for each entry, in ng·h/mL.

Documented AUC0-t of Cc1ccc(=O)n(-c2ccccc2)c1 [Pirfenidone, 5 methyl-1-phenyl-2-[H] pyridone] : 21400

----------
# Assay Name: Plasma pharmacokinetics after IV or PO administration
# Assay type: in vivo, SD Rat
# Run Parameters: Sprague-Dawley, rat, serum, po, 40 mg/kg, SD Rat, PO 40 mg/kg, individual rats 7-9; read-out: AUC0-∞
Value Kind: AUC(0-inf) (ng·h/mL)
Give bare numbers, in ng·h/mL.

The recorded AUC(0-inf) for entry Cc1ccc(=O)n(-c2ccccc2)c1 [Pirfenidone, 5 methyl-1-phenyl-2-[H] pyridone] equals 11100

----------
# Assay Name: Plasma pharmacokinetics after IV or PO administration
# Assay type: in vivo, SD Rat
# Run Parameters: Sprague-Dawley, rat, serum, po, 40 mg/kg, SD Rat, PO 40 mg/kg; read-out: T1/2, Mean (converted)
Value Kind: half-life (min)
Give bare numbers, in min.

Looking up Cc1ccc(=O)n(-c2ccccc2)c1 [Pirfenidone, 5 methyl-1-phenyl-2-[H] pyridone] , I found its half-life recorded as 48.9

----------
# Assay Name: Plasma pharmacokinetics after IV or PO administration
# Format: in vivo, SD Rat
# Run Parameters: Sprague-Dawley, rat, plasma, iv, 40 mg/kg, SD Rat, IV 40 mg/kg, 0.25 h; read-out: Plasma concentrations of Pirfenidone, Mean
Value Kind: concentration at 0.25 h (ng/mL)
Answers are plain numbers, in ng/mL.

concentration at 0.25 h for Cc1ccc(=O)n(-c2ccccc2)c1 [Pirfenidone, 5 methyl-1-phenyl-2-[H] pyridone] is 25400

----------
# Assay Name: Plasma pharmacokinetics after IV or PO administration
# Format: in vivo, SD Rat
# Run Parameters: Sprague-Dawley, rat, plasma, iv, 40 mg/kg, SD Rat, IV 40 mg/kg, 0.5 h; read-out: Plasma concentrations of Pirfenidone, Mean
Value Kind: concentration at 0.5 h
Give the number first and the unit second.

In plain terms, Cc1ccc(=O)n(-c2ccccc2)c1 [Pirfenidone, 5 methyl-1-phenyl-2-[H] pyridone] has a documented concentration at 0.5 h of 17200 ng/mL
